- Assay type: in vitro ADME, mouse
- Description: Mouse plasma (non-sterile) was purchased from Rockland, Pa., USA. This plasma is stabilized with heparin, sodium. The substance was dissolved in PBS and plasma, respectively, at concentrations 0.1/0.2 mg/mL. […] The samples were analysed by HPLC using visible detection. The substance was dissolved in PBS, concentration 0.1 mg/mL. The fluorescence intensity of the ultracentrifuged samples was measured using Fluoroskan Ascent® FL equipped with plate reader (Thermo Labsystems Oy, Finland). […]
Can you tell me % main peak area (after 4 h incubation in mouse plasma) for the items I'm about to list?
Kindly answer with a numeric value in %, unit omitted.

Kindly note the recorded % main peak area (after 4 h incubation in mouse plasma) for CC1(CCCCS(=O)(=O)O)C(/C=C/C=C/C=C2\N(CCCCCC(=O)NCCCC[C@@H]3NC(=O)CSC[C@@H](C(=O)NCCOCCOCCOCCNC(=O)COCC(N)=O)NC(=O)[C@H](Cc4ccccc4)NC(=O)[C@@H]4CSSC[C@H](NC3=O)C(=O)N[C@@H](CCCNC(=N)N)C(=O)NCC(=O)N[C@@H](CC(=O)O)C(=O)N4)c3ccc(S(=O)(=O)O)cc3C2(C)CCCCS(=O)(=O)O)=[N+](Cc2ccccc2)c2ccc(S(=O)(=O)[O-])cc21 (some centres unmarked) , which is 46

Data point: CC1(CCCCS(=O)(=O)O)C(/C=C/C=C/C=C2/N(CCCCCC(=O)NCCCC[C@@H]3NC(=O)CSC[C@@H](C(=O)NCCOCCOCCOCCNC(=O)COCC(N)=O)NC(=O)[C@H](Cc4ccccc4)NC(=O)[C@@H]4CSSC[C@H](NC3=O)C(=O)N[C@@H](CCCNC(=N)N)C(=O)NCC(=O)N[C@@H](CC(=O)O)C(=O)N4)c3ccc(S(=O)(=O)O)cc3C2(C)C)=[N+](CCCCS(=O)(=O)O)c2ccc(S(=O)(=O)O)cc21 (some centres unmarked) [Compound 4, RGD-Cy5** Dye Conjugate] ; % main peak area (after 4 h incubation in mouse plasma) = 100
